Here's a batch of compounds along with measured IC50 for human eIF4E protein (Homo sapiens, UniProt P06730).

Sample records with IC50:
compound | reported value
Cc1cc(-c2cc(Cl)ccc2OCCn2c(C)nc3c(c2=O)C[C@@H](N(C)C[C@H]2C[C@](C)(O)C2)CC3)c2scc(C(=O)O)c2n1 (single isomer, unassigned) [Compound 211] | < 100 nM
Cc1cc(-c2cc(Cl)ccc2OCCn2c(C)nc3c(c2=O)C[C@H](N2CC[C@@H](OC(F)(F)F)C2)CC3)c2scc(C(=O)O)c2n1 (single isomer, unassigned) [Compound 387] | < 100 nM
Cc1cc(-c2cc(Cl)ccc2OCCn2c(C)nc3c(c2=O)CC(N(C)CC2CC(F)(F)C2)CC3)c2scc(C(N)=O)c2n1 (stereo not shown) [Compound 138] | 100 to 500 nM
Cc1cc(-c2cc(Cl)ccc2OCCn2c(C)nc3c(c2=O)C[C@@H](N2CCC(c4ccc(F)cc4F)CC2)CC3)c2scc(C(=O)O)c2n1 (single isomer, unassigned) [Compound 419] | < 100 nM

Attention now shifts to the item below.
Answer with the recorded IC50 of Cc1cc(-c2cc(Cl)ccc2OCCn2c(C)nc3c(c2=O)CC(N2CCC4(COC4)C2)CC3)c2scc(C(=O)O)c2n1 (stereo not shown) [Compound 26] only.
< 100 nM
